Value source: PubChem BioAssay (NCI)

# System: U251 CNS
# assay notes: NCI-60 one-dose screen, 48 h (100 = growth as untreated, 0 = no growth, -100 = all killed)
# particulars: 10 µM unless noted
Compounds without any hit were thinned out: in the full panel of roughly 83,000, 20% have a hit. The source made the active and inactive calls. How the source made its calls: active means growth percent below 10; inactive means the rest.
measurement name: growth

>>> observed_value("O=C(NNC(=O)c1ccc(NC(=O)c2ccccn2)cc1)Nc1ccc([N+](=O)[O-])cc1")
"78.5% (inactive)"
>>> observed_value("C=CCOC(=O)Nc1cccn([C@H](Cc2ccccc2)C(=O)NCCC(C)C)c1=O")
"101% (inactive)"
>>> observed_value("CC(C)COc1nc2c(c(=O)n(C)c(=O)n2C)n1C")
"101% (inactive)"
>>> observed_value("CC(=O)Oc1ccc(/C(=C(\\C)c2ccc(Cl)cc2)c2ccc(OCCN3CCCCC3)cc2)cc1")
"18.3% (inactive)"
>>> observed_value("CCOC(=O)C(=O)C(C(=O)OCC)c1ccccc1 (stereo not given)")
"112% (inactive)"

Field: growth. Fill in for each record below.
1. O=C1NC2(Nc3ccccc31)C(=O)Nc1c(Cl)cc(Cl)cc12 (stereo not given)
2. CN1C(=O)/C(=C\c2nc([P+](c3ccccc3)(c3ccccc3)c3ccccc3)c(N3CCOCC3)o2)SC1=S
3. CCOC(=O)c1c(C(=O)c2cn(C)c3ccc(Br)cc23)c(-c2cn(C)c3ccc(Br)cc23)n(NC(=O)OC(C)(C)C)c1C
4. OCCn1cc(-c2nc(-c3c[nH]c4ncccc34)cs2)c2cc(F)ccc21
5. NC(N)=NCCCCCNc1noc(Cc2c[nH]c3cc(Br)ccc23)n1

[reply]
["104% (inactive)", "66.2% (inactive)", "60.7% [100 µM] (inactive)", "62.9% (inactive)", "21.6% (inactive)"]
